Each item that follows carries a reported cytotoxicity at 70.5 h.
- Assay Details: Human HepG2 cell viability assay in 384 well format
- Type: toxicity, cell-based
- Parameters: dose 125 nL, time 70.5 hour; concentration not given beside the values
- Conditions: HepG2 cells, read-out: Inhibition
Expressed in %, but write only the number.

Task: Return reported cytotoxicity at 70.5 h. Input compound: CCC(C)NC(=O)c1coc(COc2cccc(F)c2)n1 (stereo not given)
Result: -3.12

Others:
Task: Return cytotoxicity at 70.5 h (reported value) for this compound: COCCCNS(=O)(=O)c1ccc2c(c1)NC(=O)C(C)O2 (stereo not given)
Result: 1.94

Task: Answer with reported cytotoxicity at 70.5 h of "Cc1cc(C(=O)N2CCC(C)CC2)ccc1NS(C)(=O)=O"
Result: -4.78

Task: Could you please provide reported cytotoxicity at 70.5 h for "O=C(Cn1cc(-c2ccccc2)ncc1=O)Nc1ccncc1" ? Thanks!
Result: -13.4

Task: Quickly give me recorded cytotoxicity at 70.5 h for O=C(NCC(O)c1ccc(Cl)c(F)c1)NC1CC=CC1 (stereo not given)
Result: -3.83
